Recorded melting point for the following compounds

Completed entries (count: 4):
compound=O=[N+]([O-])N=c1ccccn1Cc1ccccc1 reported="125 to 126 °C"
compound=CCOCCOc1cc(C(C)C)c(NC(=O)CN2CCN(CCSc3nc4ccccc4o3)CC2)c(C(C)C)c1 reported="92 to 95 °C"
compound=NC(=O)Cc1ccc(-c2csc(N=C(N)N)n2)o1 reported="219 to 220 °C"
compound=CCCCN(CCCC)Cc1nnc(-c2ncn3c2CN(C)C(=O)c2c(Cl)cccc2-3)o1 reported="105 to 108 °C"

Query: Request the reported melting point associated with `Cc1cn(Cc2ccccc2)c(=O)n(CCCCl)c1=O`
Response: 48 to 50 °C

Query: Request the reported melting point associated with COc1cc2c(cc1OC)C(=O)C(c1ccc(F)cc1)C2 (configuration not stated)
Response: 189 to 191 °C

Query: Request the reported melting point associated with `CSc1ccc(C(=O)CC(=O)C2CC2)c2c1OC(F)(F)O2`
Response: 46 to 47 °C

Query: Request the reported melting point associated with CC1CC2C3CCC4=CC(=O)C=CC4(C)C3=CCC2(C)C1(O)C#N (configuration not stated)
Response: 241 to 248 °C

Query: Request the reported melting point associated with `CCOC(=O)C(=O)c1ccccc1C(=O)c1ccc(Cl)cc1`
Response: 79 to 81 °C

Query: Request the reported melting point associated with `CN(C)c1cc(Oc2cccc(C(F)(F)F)c2)nc(C(=O)Nc2ccccc2)c1`
Response: 135 to 138 °C

Query: Request the reported melting point associated with Cc1cc(C)c2c(c1)C(NC(=O)c1conc1C)CCC2 (configuration not stated)
Response: 57 to 58 °C

Query: Request the reported melting point associated with `Cc1cn(-c2ccc(NC(=O)c3ccc(C)c(C#Cc4ccc(NC5CC5)nn4)c3)cc2C(F)(F)F)cn1`
Response: 125 to 126 °C

Query: Request the reported melting point associated with `O=C(c1ccc(Cl)cc1)c1c(Cl)nc2n(c1=O)CCS2`
Response: 174 °C

Query: Request the reported melting point associated with `Cc1cc(CNc2cccc(C(=O)O)c2C(=O)O)oc1C`
Response: 127 to 129 °C

Query: Request the reported melting point associated with Cc1cc(C)nc(NC(=O)NS(=O)(=O)C2CC3C=CC2O3)n1 (configuration not stated)
Response: 125 to 145 °C

Query: Request the reported melting point associated with `CCCCCc1ccc(C(=O)NO)cc1`
Response: 89.9 to 90.1 °C

Query: Request the reported melting point associated with `Cc1cc(Br)cc(C)c1N([Si](C)(C)C)[Si](C)(C)C`
Response: 47 to 52 °C

Query: Request the reported melting point associated with `CCOc1cccc(COc2ccc3c(c2)C=C(C(=O)O)CCS3(=O)=O)c1`
Response: 150 to 154 °C
